Measured normalized growth, listed per entry for reference.
- experiment_summary: chemical genetic growth profiling, strain panel (AID 1159580);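 also: tested at 20 µM; growth read once vehicle control cultures reached saturation at 30 °C; 1 = growth at the plate median or of vehicle wells; lower values mean less growth of the strain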
- assay_context: S. cerevisiae deletion strains, growth OD, locus YKL085W, strain MDH1 (second series), active compounds read low
The whole screen tested about 5,500 compounds, of which about 2,000 (36%) were called active. Roughly 18% stayed inconclusive and do not appear here. The list shows a part of the results.
Answer field: number only, no words.

In the examples that follow, each entry is paired with its recorded normalized growth.
# compound, normalized growth
measured = [
    ("CC12CCC(O)CC1CCC1C2[C@H](O)CC2(C)C(C3=CC(=O)OC3)CCC12O (some centres undefined)", 1),
    ("CN(C)[C@@H]1C(=O)C(C(N)=O)=C(O)[C@@]2(O)C(=O)C3=C(O)c4c(O)ccc(Cl)c4[C@@](C)(O)[C@H]3C[C@@H]12", 1.01),
    ("CO[C@H]1CC(O[C@@H]2/C(C)=C/C[C@@H]3C[C@@H](C[C@]4(CC[C@H](C)[C@@H](C5CCCCC5)O4)O3)OC(=O)[C@@H]3C=C(C)/C(=N\\O)[C@H]4OC/C(=C\\C=C\\[C@@H]2C)[C@]43O)O[C@@H](C)C1O (some centres undefined)", 0.997),
]

# context switch: different compound, same normalized growth
Please look at this compound and report its normalized growth: Cc1c(C)c2c(c(C)c1O)CCC(C)(CCCC(C)CCCC(C)CCCC(C)C)O2 (centres undefined)
0.99
